Origin of measurements: patent US6858638B2

Examples of compounds with documented inhibition at 10 µM follow.
biological target: Aurora2 kinase (Homo sapiens); construct: A complete recombinant Aurora2 enzyme; His tag (N); made in house; host or cells: E. coli; assay: Aurora2 kinase radioactivity scintillation assay using nickel chelate (NuMA substrate); assay type: biochemical; conditions: 10 μM; read-out: Aurora2 % inhib at 10 μM
Sequence (O14965 whole entry): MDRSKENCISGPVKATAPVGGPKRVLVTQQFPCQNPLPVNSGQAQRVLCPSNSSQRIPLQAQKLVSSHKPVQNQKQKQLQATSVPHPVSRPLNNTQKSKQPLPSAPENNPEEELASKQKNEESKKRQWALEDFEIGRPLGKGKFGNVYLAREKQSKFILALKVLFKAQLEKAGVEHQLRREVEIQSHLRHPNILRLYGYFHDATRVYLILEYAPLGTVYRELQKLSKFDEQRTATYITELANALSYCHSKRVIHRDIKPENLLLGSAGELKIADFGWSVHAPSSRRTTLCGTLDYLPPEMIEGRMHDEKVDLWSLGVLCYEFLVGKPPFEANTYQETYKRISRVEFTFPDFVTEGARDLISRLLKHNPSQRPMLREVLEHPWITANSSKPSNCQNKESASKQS
The answer should read as a number with its unit following.

// worked examples, inhibition at 10 µM included
>>> endpoint_result("CS(=O)(=O)c1ccccc1S(=O)(=O)Nc1ccc2[nH]nc(-c3cccnc3)c2c1 [Example 59]")
"100%"
>>> endpoint_result("O=S(=O)(Nc1ccc2[nH]nc(-c3ccccc3)c2c1)C1CCCCC1 [Example 99]")
"79%"
>>> endpoint_result("O=S(=O)(Nc1ccc2[nH]nc(-c3cc4ccccc4[nH]3)c2c1)c1cccc(F)c1 [Example 85]")
"100%"
>>> endpoint_result("O=S(=O)(Nc1ccc2[nH]nc(-c3ccccc3)c2c1)c1cccc2ccccc12 [Example 106]")
"92%"
>>> endpoint_result("CS(=O)(=O)c1ccccc1S(=O)(=O)Nc1ccc2[nH]nc(-c3cc4ccccc4s3)c2c1 [Example 65]")
"100%"

Which inhibition at 10 µM value belongs to CSc1ccccc1-c1n[nH]c2ccc(NS(=O)(=O)c3ccccc3S(C)(=O)=O)cc12 [Example 103] ? 40%

Can you look up the measured inhibition at 10 µM of O=S(=O)(Nc1ccc2[nH]nc(-c3ccccc3)c2c1)c1ccc(Br)cc1 [Example 116] for me? 69%

I would be grateful if you could share the reported inhibition at 10 µM for CS(=O)(=O)c1ccccc1S(=O)(=O)Nc1ccc2[nH]nc(Nc3ccccc3)c2c1 [Example 83] . 93%

What value of measured inhibition at 10 µM is listed for O=S(=O)(Nc1ccc2[nH]nc(-c3ccccc3)c2c1)c1cccc(Cl)c1 [Example 136] ? 85%

Suppose we examine the compound CN(C)c1ccc(-c2n[nH]c3ccc(NS(=O)(=O)c4ccccc4S(C)(=O)=O)cc23)cc1 [Example 63] ; what inhibition at 10 µM value has been reported? 100%

----------
molecular target: human KDR enzyme (Homo sapiens, UniProt P35968); construct: The cytoplasmic domain of the human KDR enzyme; GST; made in house; host or cells: SF21 insect cells (baculovirus); assay: KDR substrate (PLCγ) phosphorylation, scintillation assay; type: biochemical; conditions: 10 μM; read-out: KDR % inhib at 10 μM
Sequence (P35968 786-1356 limits assumed): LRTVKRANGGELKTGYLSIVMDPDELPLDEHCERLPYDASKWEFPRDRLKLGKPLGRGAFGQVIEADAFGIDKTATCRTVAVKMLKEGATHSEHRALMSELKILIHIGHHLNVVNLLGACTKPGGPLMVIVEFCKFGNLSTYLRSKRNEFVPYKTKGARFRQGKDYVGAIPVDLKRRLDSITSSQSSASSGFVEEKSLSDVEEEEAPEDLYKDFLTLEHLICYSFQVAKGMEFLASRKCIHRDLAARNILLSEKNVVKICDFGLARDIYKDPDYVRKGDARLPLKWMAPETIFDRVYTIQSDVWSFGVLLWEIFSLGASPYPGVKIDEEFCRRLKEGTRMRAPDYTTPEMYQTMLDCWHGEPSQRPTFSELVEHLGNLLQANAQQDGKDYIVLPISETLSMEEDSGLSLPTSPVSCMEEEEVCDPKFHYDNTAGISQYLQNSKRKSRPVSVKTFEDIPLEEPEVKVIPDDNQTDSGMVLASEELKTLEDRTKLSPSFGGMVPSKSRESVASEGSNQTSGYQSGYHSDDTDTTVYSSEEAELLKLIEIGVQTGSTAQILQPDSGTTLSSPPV
Test readout: inhibition at 10 µM (%)
Please state the figure in %; there is no need to write the unit.

>>> endpoint_result("Nc1cc(Cl)cc(Cl)c1S(=O)(=O)Nc1ccc2[nH]nc(-c3ccccc3)c2c1")
86
>>> endpoint_result("CS(=O)(=O)c1ccccc1S(=O)(=O)Nc1ccc2[nH]nc(-c3cccc(OCc4ccccc4)c3)c2c1")
23
>>> endpoint_result("CC(=O)c1ccc(-c2n[nH]c3ccc(NS(=O)(=O)c4ccccc4S(C)(=O)=O)cc23)cc1")
45

# next compound below
Query: inhibition at 10 µM; subject: O=S(=O)(Nc1ccc2[nH]nc(-c3ccccc3)c2c1)c1cc(F)cc(F)c1 96

----------
target: Aurora2 kinase (Homo sapiens); construct: A complete recombinant Aurora2 enzyme; His tag (N); made in house; host or cells: E. coli; test: Aurora2 kinase radioactivity scintillation assay using nickel chelate (NuMA substrate); format: biochemical; details: 10 μM; read-out: Aurora2 % inhib at 10 μM
Test readout: inhibition at 10 µM

>>> endpoint_result("CS(=O)(=O)c1ccccc1S(=O)(=O)Nc1ccc2[nH]nc(-c3cc(Cl)cc(Cl)c3)c2c1 [Example 168]")
"87%"
>>> endpoint_result("CS(=O)(=O)c1ccccc1S(=O)(=O)Nc1ccc2[nH]nc(-c3ccc(N)cc3)c2c1 [Example 70]")
"98%"
>>> endpoint_result("CS(=O)(=O)c1ccccc1S(=O)(=O)Nc1ccc2[nH]nc(CCc3ccc(Cl)cc3)c2c1 [Example 77]")
"93%"
>>> endpoint_result("CC(C)c1cc(C(C)C)c(S(=O)(=O)Nc2ccc3[nH]nc(-c4ccccc4)c3c2)c(C(C)C)c1 [Example 114]")
"98%"
>>> endpoint_result("O=C(O)c1cccc(S(=O)(=O)Nc2ccc3[nH]nc(-c4ccccc4)c3c2)c1 [Example 133]")
"67%"

Find the recorded inhibition at 10 µM belonging to CS(=O)(=O)Nc1ccc2[nH]nc(-c3ccccc3)c2c1 [Example 124] and report it. 60%

Quick one: inhibition at 10 µM of CS(=O)(=O)c1ccccc1S(=O)(=O)Nc1ccc2[nH]nc(-c3cccc([N+](=O)[O-])c3)c2c1 [Example 162] ? 91%

Field request: inhibition at 10 µM | item: O=S(=O)(Nc1ccc2[nH]nc(-c3ccccc3)c2c1)c1ccccc1Br [Example 139] 96%
